TARGET_OF_ASSAY: human alpha-CGRP (Homo sapiens)
Sequence: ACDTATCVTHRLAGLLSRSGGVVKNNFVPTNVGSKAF
MEASUREMENT_DESCRIPTION: SPR
EXPERIMENTAL_CONTEXT: L-RNA; dC at 41; 37 C, HBS-EP pH 7.4
REPORTED_METRIC: pKd
Schema: pKd number; meaning minus log10 of the concentration expressed in molar units.

[in] Tell me its pKd given CCGUGCUGUCGGAGACUACUCGUCGAGUAGAAAUAGGUCCCCUCCCACGG [226-F2-001-D41] as the entry.
[out] 9.26

---

TARGET_OF_ASSAY: biotinylated human glucagon (Homo sapiens) (UniProt P01275)
Sequence (P01275 53-81): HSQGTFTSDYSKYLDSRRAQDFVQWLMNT
MEASUREMENT_DESCRIPTION: SPR
EXPERIMENTAL_CONTEXT: L-RNA; 37 C, HBS-EP pH 7.4
REPORTED_METRIC: Kd

[in] Tell me its Kd given CAGACGUGUGUGGGUAGAUGCACCUGCGAUUCGCUAAAAAGUGCCACACGUCUG [NOX-G11stabi2] as the entry.
[out] 67.1 nM

---

TARGET_OF_ASSAY: biotinylated human glucagon (Homo sapiens)
MEASUREMENT_DESCRIPTION: competition
EXPERIMENTAL_CONTEXT: L-DNA; competitive pull-down, 37 C, 1 mM Mg, 1 mM Ca
REPORTED_METRIC: pKd
Schema: pKd number; meaning minus log10 of the concentration expressed in molar units.

[in] Recall the reported pKd of GCAGTGGGGAAATGGGAGGGCTAGGTGGAAGGAATCTGAGCTACTGC [257-E1-001] when tested on biotinylated human glucagon (Homo sapiens).
[out] 6.73

---

TARGET_OF_ASSAY: human C5a (Homo sapiens)
Sequence: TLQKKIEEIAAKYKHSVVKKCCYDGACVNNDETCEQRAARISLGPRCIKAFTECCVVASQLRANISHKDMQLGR
MEASUREMENT_DESCRIPTION: SPR
EXPERIMENTAL_CONTEXT: L-RNA; 37 C, HBS-EP pH 7.4
REPORTED_METRIC: pKd
Schema: pKd number; meaning minus log10 of the concentration expressed in molar units.

[in] Tell me its pKd given GCCUGAUGUGGUGGUGAAGGGUUGUUGGGUGUCGACGCACAGGC [NOX-D19001] as the entry.
[out] 8.85

---

TARGET_OF_ASSAY: biotinylated human glucagon (Homo sapiens)
MEASUREMENT_DESCRIPTION: SPR
EXPERIMENTAL_CONTEXT: L-DNA; 37 C, HBS-EP pH 7.4
REPORTED_METRIC: Kd (nM)
# number only, unit nM dropped from output

[in] Tell me its Kd given ACTCGAGAGGAAAGGTTGGTAAAGGTTCGGTTGGATTCACTCGAGT [259-H6-002] as the entry.
[out] 10.9

---

TARGET_OF_ASSAY: human alpha-CGRP (Homo sapiens)
Sequence: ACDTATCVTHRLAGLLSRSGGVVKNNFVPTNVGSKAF
MEASUREMENT_DESCRIPTION: SPR
EXPERIMENTAL_CONTEXT: L-RNA; 37 C, HBS-EP pH 7.4
REPORTED_METRIC: pKd
Schema: pKd number; meaning minus log10 of the concentration expressed in molar units.

[in] Recall the reported pKd of CCGUGCUGUCGGAGACUACUCGUCGAGUAGAAAUAGGUCCCCUCCCACGG [226-F2-001] when tested on human alpha-CGRP (Homo sapiens).
[out] 8.59
